Values compiled from patent US20230028880A1.

target: CD38 (human, UniProt P28907 1-300); test: cell-based or functional assay
Bridges are numbered along the chain shown (N, C = ends). Roman numbers before positions name the chains, in order. Where no end group is shown, it is not given here. [ ]: non-standard residue; d: D form. branched linker from compound 8 (carries γGlu-hexadecanedioic acid) = not defined here; Bip = N[C@@H](Cc1ccc(-c2ccccc2)cc1)C(=O)O; Ahp(2) = CCCCC[C@H](N)C(=O)O
Catalogue of binders with associated EC50 (nM), ADCC reporter cells
Use nM as the unit, but write only the number.

Binder: I-30 (disulfide II:2-II:12; also: thioether at chain A 13 to a chain's N-terminus) peptide 1: AR[Ahp(2)]YHDGVL[Bip][Ahp(2)]DC-{4‑aminobutanoic acid} peptide 2: DCAWHLGELVWCT-NH2
EC50 (nM), ADCC reporter cells: 12

Lookup result for I-32 (disulfide II:3-II:13; not fully specified (N-terminus); reading uncertain; also: N-terminus of chain 2 amide-bonded to the branched linker (one conjugate), thioether at chain A 13 to a chain's N-terminus via -C(O)-CH2- (from 2-bromoacetic acid), One covalent conjugate) peptide 1: {‑C(O)CH2‑}-AR[Ahp(2)]YHDGVL[Bip][Ahp(2)]DC-{branched linker from compound 8 (carries γGlu-hexadecanedioic acid)} peptide 2: DDCAWHLGELVWCT-NH2 ; measured EC50 (nM), ADCC reporter cells: 63

Lookup result for I-27 (not fully specified; Cys2-Cys12 disulfide; N-terminus extended by D-Glu(side chain amide of 12-aminododecanoic acid)-PEG6-; X3 and X11 = Ahp ((S)-2-aminoheptanoic acid), X10 = Bph (4-biphenylylalanine); N-terminal -C(O)CH2- (from 2-bromoacetic acid) thioether-linked to S of Cys13; C-terminus carries PEG10 linker) peptide 1: ARXYHDGVLXXDC peptide 2: DCAWHLGELVWCT ; measured EC50 (nM), ADCC reporter cells: 3
